- System: Prot.morg. 2241
- method_notes: agar serial dilution test
- Assay type: cell-based
- condition_label: 24 h, agar serial dilution, 24 hours, 37° C.; read-out: minimal inhibitory concentration (MIC)
Entries and their MIC

Look over these answered cases.
In [3]: df
Out[3]:
                                   compound  parameter    observed
0  Cc1nc(CC(=O)N[C@@H]2C(=O)N3[C@@H]2SC(C)(C)[C@@H]3C(=O)O)no1        MIC    100 mg/L
1  CC1(C)S[C@@H]2[C@H](NC(=O)[C@H](N)c3ccccc3)C(=O)N2[C@H]1C(=O)O [Ampicillin, reference compound]        MIC   12.5 mg/L
2  COC(=O)C(C(=O)N[C@@H]1C(=O)N2C(C(=O)O)=C(COC(C)=O)CS[C@H]12)c1nc(C)no1 (stereo partly shown)        MIC  > 100 mg/L

Reported MIC for `CCc1nc(CC(=O)N[C@@H]2C(=O)N3C(C(=O)O)=C(CSc4nnc(C)s4)CS[C@H]23)no1` was 100 mg/L

Reported MIC for CCc1noc(C(C)C(=O)N[C@@H]2C(=O)N3[C@@H]2SC(C)(C)[C@@H]3C(=O)O)n1 (stereo partly shown) [Example 11M] was > 100 mg/L

Reported MIC for CC1(C)S[C@@H]2[C@H](NC(=O)Cc3nc(-c4c(Cl)cccc4Cl)no3)C(=O)N2[C@H]1C(=O)O [Example 11A] was > 100 mg/L

Reported MIC for CC(=O)OCC1=C(C(=O)O)N2C(=O)[C@@H](NC(=O)Cc3nc(-c4c(Cl)cccc4Cl)no3)[C@H]2SC1 [Example 11C] was > 100 mg/L

Reported MIC for CC(=O)OCC1=C(C(=O)O)N2C(=O)[C@@H](NC(=O)Cc3noc(C)n3)[C@H]2SC1 [Example 11D] was > 100 mg/L

Reported MIC for CCc1noc(C(C)C(=O)N[C@@H]2C(=O)N3C(C(=O)O)=C(COC(C)=O)CS[C@H]23)n1 (mixture of isomers) [Example 11K] was > 100 mg/L

Reported MIC for `Cn1nnnc1SCC1=C(C(=O)O)N2C(=O)[C@@H](NC(=O)Cc3nc(CC(=O)O)no3)[C@H]2SC1` was 25 mg/L

Reported MIC for CC1=C(C(=O)O)N2C(=O)[C@@H](NC(=O)Cc3nc(C)no3)[C@H]2SC1 [Example 11F] was > 100 mg/L

Reported MIC for `Cc1noc(CC(=O)N[C@@H]2C(=O)N3C(C(=O)O)=C(CSc4nnnn4C)CS[C@H]23)n1` was 100 mg/L
